tested on: Plasmodium falciparum; assay: In vitro inhibitory activity against Plasmodium falciparum D6; format: functional, organism-based
# reported IC50; entries follow
Your answer is read as nM, so omit the unit and give the number.

O=C1c2cc(O)c(O)cc2C(=O)c2cc(O)c(O)cc21 = 300
O=C1c2c(O)c(O)c(O)c(O)c2C(=O)c2c(O)c(O)c(O)c(O)c21 = 800
O=C1c2c(O)c(O)c(O)c(Br)c2C(=O)c2c(O)c(O)c(O)c(Br)c21 = 5000
O=C1c2cc(O)c(O)c(O)c2C(=O)c2cc(O)c(O)c(O)c21 = 35

Alright, here's another compound for you.
Query :: System Plasmodium falciparum. Read-out IC50. Item O=C1c2ccccc2C(=O)c2ccccc21 . Report value.
Result :: 5000
